# Measured Target: T1, TCE-20 (anti-CD3 scFv S110A; anti-TROP2 wt)
# T1 construct: scFv on the Fab heavy chain; also called TCE-20 (S110A)
# Test Method Notes: competition ELISA, TCE on captured CD3; Table 40 peptide panel (FIGS. 91-102), limit >100 µM
pIC50: −log10 of the molar value. Where no end group is shown, it is not given here.

>  <Binder>
VYCGPEFDESVGCA (cysteine pairing not given here; also: biotinylated, site not given here, mask peptide for the CD3 scFv) [Peptide-73]

>  <pIC50>
5.66

$$$$
